System: MDA-MB-435
Assay: NCI tumour cell line growth inhibition, 48 h
endpoint.label: TGI

{"molecule": "Clc1ccc(-c2ccc(CNCC3CCNCC3)o2)c(-c2ccccc2)c1", "assay.target": "MDA-MB-435", "result": "3.05 µM"}
{"molecule": "CCOC(=O)Nn1cnnc1C", "assay.target": "MDA-MB-435", "result": "> 100 µM"}
{"molecule": "O=C(CC(=O)Nc1ccc(C(=O)O)cc1)Nc1ccc(C(=O)O)cc1", "assay.target": "MDA-MB-435", "result": "> 100 µM"}
{"molecule": "CC(C)(C)N1C(=O)N=[N+](/C(=C(\\c2ccccc2)n2nc([O-])n(C(C)(C)C)c2=O)c2ccccc2)C1=O", "assay.target": "MDA-MB-435", "result": "> 100 µM"}
{"molecule": "O=C(c1ccccc1)c1ccc2nc(-c3c(Cl)c(Cl)c(Cl)c(Cl)c3C(=O)N/N=C\\C=C\\c3ccccc3)[nH]c2c1", "assay.target": "MDA-MB-435", "result": "> 100 µM"}
{"molecule": "COC(=O)Cc1c([C@H]2[C@H](CC(=O)OC)c3ccccc3N2C(=O)C(F)(F)F)[nH]c2ccccc12", "assay.target": "MDA-MB-435", "result": "62 µM"}
{"molecule": "NC(C(=O)O)c1cc(=O)[nH]o1 (stereo not drawn)", "assay.target": "MDA-MB-435", "result": "> 100 µM"}
{"molecule": "c1ccc(N2CCN(CN3CCN(c4ccccc4)C3)C2)cc1", "assay.target": "MDA-MB-435", "result": "> 100 µM"}
{"molecule": "O=C(OC1C=C=CS(=O)(=O)CC#C/C=C\\1)c1cnc2ccccc2n1 (stereo not drawn)", "assay.target": "MDA-MB-435", "result": "> 100 µM"}
{"molecule": "COc1ccc(/C=C/C(=O)c2ccc(NC(=O)CSc3nnc(-c4ccc(OC)c(OC)c4)n3-c3ccccc3)cc2)cc1", "assay.target": "MDA-MB-435", "result": "4.13 µM"}
{"molecule": "CSC(N)=Nc1cccc2ccccc12", "assay.target": "MDA-MB-435", "result": "> 10 µM"}
{"molecule": "CCCc1n(Cc2ccc3ccccc3c2)c2ccccc2[n+]1Cc1ccc2ccccc2c1", "assay.target": "MDA-MB-435", "result": "1.26 µM"}
{"molecule": "ClCc1nn(-c2ccccc2)c(CCl)c1CCl", "assay.target": "MDA-MB-435", "result": "6.6 µM"}
{"molecule": "N#Cc1c(O)c(C=Nc2ccc(Cl)cc2)c(=O)n2c1[nH]c1ccccc12", "assay.target": "MDA-MB-435", "result": "> 100 µM"}
{"molecule": "COC1(C)OC[C@@]2(C)OC(C)C1(C)C2O[Si](C(C)C)(C(C)C)C(C)C (stereo partly drawn)", "assay.target": "MDA-MB-435", "result": "> 100 µM"}
{"molecule": "O=C(O)c1ccc(C=C2Sc3ccccc3S2)cc1", "assay.target": "MDA-MB-435", "result": "44.9 µM"}
{"molecule": "Clc1ccc(-c2noc(CN3CCCCC3)n2)cc1", "assay.target": "MDA-MB-435", "result": "> 100 µM"}
{"molecule": "Cc1cc2nc3c4cc(C=O)ccc4n(CCN(C)C)c3nc2cc1C", "assay.target": "MDA-MB-435", "result": "3.07 µM"}
{"molecule": "C=C(CN1CCc2ccccc2C1)c1ccc(CCC(=O)Nc2ccccc2N)cc1", "assay.target": "MDA-MB-435", "result": "49.9 µM"}
{"molecule": "CCCCCC(=O)n1[nH]c(=O)n(-c2ccc(OC)cc2)c1=O", "assay.target": "MDA-MB-435", "result": "> 100 µM"}
{"molecule": "Cc1nc2ccccn2c1NC(=O)NNC(=S)Nc1ccc(Cl)cc1", "assay.target": "MDA-MB-435", "result": "> 100 µM"}
{"molecule": "C=CCSSC1N=CNc2nc[nH]c21 (stereo not drawn)", "assay.target": "MDA-MB-435", "result": "39.9 µM"}
{"molecule": "CC(=O)Oc1ccc(/C=C/C(=O)NCC(NC(=O)/C=C/c2ccc(OC(C)=O)c(OC(C)=O)c2)C(=O)O)cc1OC(C)=O (stereo not drawn)", "assay.target": "MDA-MB-435", "result": "> 100 µM"}
